# target_system: Beta-3 adrenergic receptor (Rattus norvegicus) (UniProt P26255)
# Sequence (P26255 whole entry): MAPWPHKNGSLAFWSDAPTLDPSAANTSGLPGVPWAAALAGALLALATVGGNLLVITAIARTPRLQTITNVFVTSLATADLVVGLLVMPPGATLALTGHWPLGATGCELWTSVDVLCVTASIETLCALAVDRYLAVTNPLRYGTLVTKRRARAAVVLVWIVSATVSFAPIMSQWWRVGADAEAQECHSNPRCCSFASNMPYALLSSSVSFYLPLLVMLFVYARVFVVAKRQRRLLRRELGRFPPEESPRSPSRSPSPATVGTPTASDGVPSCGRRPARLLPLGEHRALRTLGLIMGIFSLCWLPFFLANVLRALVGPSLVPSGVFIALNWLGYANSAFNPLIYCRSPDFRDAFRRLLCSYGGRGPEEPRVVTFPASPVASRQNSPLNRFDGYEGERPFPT
# protocol_text: Beta-3-adrenergic activity measured by percent response against free fatty acid (FFA) in rat plasma at a dosage of 0.1 mg/kg
# Format: functional, organism-based
# Set-up: dose 0.1 mg/kg

{"columns": ["compound", "Response (%)"],
 "data": [
  ["CCCCCCOC(=O)C1(C(=O)O)Oc2ccc(C[C@@H](C)NC[C@H](O)c3cccc(Cl)c3)cc2O1 (some centres undefined)", 66],
  ["COCCOC(=O)C1(C(=O)OCCOC)Oc2ccc(C[C@@H](C)NC[C@H](O)c3cccc(Cl)c3)cc2O1", 65],
  ["CCOC(=O)C1(C(=O)O)Oc2ccc(C[C@@H](C)NC[C@H](O)c3cccc(Cl)c3)cc2O1 (some centres undefined)", 57],
  ["C[C@H](Cc1ccc2c(c1)OC(C(=O)OCCOc1cccc(Cl)c1)(C(=O)OCCOc1cccc(Cl)c1)O2)NC[C@H](O)c1cccc(Cl)c1", 88]
]}

Values compiled from ChEMBL document CHEMBL1131783.
